These data points were gathered from patent US20260131011A1.

# target entity: RSVA2
No end group written: not given here.
property name: EC50 (µM)
Write down the numeric answer in µM and omit the unit.

What value of measured EC50 is listed for VALDPIDISIELNKAKSDLEESKEWIRRSNQKLDSI (also: conjugated to cholesterol) [HPIV3_3004 (native) HR2 ligand conjugated to cholesterol (Peptide Conjugate 12)] ?
0.05
